system: beta-TC6 cells; assay: Insulin HTRF assay, relative activity Ar normalized to sunitinib; format: cell-based; conditions: Mus musculus, normalized to positive control sunitinib (5 µM = 100%), Table 10
QUANTITY KIND: Emax

Which Emax is reported for this compound? N#Cc1ccc(-c2cnc3cnc(-c4cccs4)cn23)cc1 [compound 339] 20 to 50%

Again, but for N#Cc1ccc(-c2cnc3cnc(-c4ccsc4)cn23)cc1 [compound 336] 20 to 50%

Again, but for COc1ccc(-c2ccc3nnc(-c4ccc(O)c(OC)c4)n3c2)cn1 [compound 216] 50 to 100%

Again, but for CN1CCN(c2ccc(-c3cnc4cccnn34)cn2)CC1 [compound 69] 10 to 20%

Again, but for O=C(NC1CCCC1)c1ccc(-c2cn3c(-c4ccc(CO)cc4)cnc3cn2)cc1 [compound 375] 20 to 50%

Again, but for COc1cc(-c2ccc3nnc(-c4ccc5nccnc5c4)n3c2)ccc1O [compound 244] 50 to 100%

Again, but for FC(F)(F)Oc1cccc(-c2nnc3ccc(-c4cccs4)cn23)c1 [compound 195] 50 to 100%

Again, but for C(=C\c1cn2c(-c3cccs3)cnc2cn1)/c1ccccc1 [compound 419] 20 to 50%

Again, but for c1csc(-c2cn3c(-c4cccs4)cnc3cn2)c1 [compound 424, 3,6-bis(2-thienyl)imidazo[1,2-a]pyrazine] 50 to 100%

Again, but for COc1cncc(-c2ccc3nnc(-c4cccc(OC(F)(F)F)c4)n3c2)c1 [compound 192] 50 to 100%

Again, but for CC(=O)Nc1ccc(-c2cnc3ccc(-c4ccc(N5CCOCC5)cc4)nn23)cc1 [compound 147] ≥ 100%

Again, but for COc1ccc(-c2ccc3ncc(-c4cccc(Cl)c4)n3n2)c(C)c1 [compound 125] 10 to 20%

Again, but for CC(=O)Nc1ccc(-c2ccc3nnc(-c4cccc(Cl)c4)n3c2)cc1 [compound 202] 20 to 50%

Again, but for CCOc1cccc(-c2cn3c(-c4cccc(CO)c4)cnc3cn2)c1 [compound 378] 20 to 50%

Again, but for Clc1cccc(-c2nnc3ccc(-c4ccncc4)cn23)c1 [compound 199] 50 to 100%

Again, but for COc1ccc(-c2nnc3ccc(-c4cccc(C(=O)N(C)C)c4)cn23)cc1OC [compound 188] 50 to 100%

Again, but for Clc1cccc(-c2nnc3ccc(-c4ccc5c(c4)OCO5)cn23)c1 [compound 198] 50 to 100%

Again, but for Nc1ccc(-c2cn3c(-c4cccs4)cnc3cn2)cn1 [compound 427] 20 to 50%

----------
tested on: beta-TC6 cells; test: Insulin HTRF assay, relative activity Ar normalized to sunitinib; format: cell-based; conditions: Mus musculus, normalized to positive control sunitinib (5 µM = 100%), Table 10
QUANTITY KIND: Emax

Which Emax is reported for this compound? FC(F)(F)Oc1cccc(-c2ccc3nnc(-c4ccncc4)n3c2)c1 20 to 50%

Again, but for O=C(O)CCc1ccc(-c2cnc3cnc(-c4cccc(Cl)c4)cn23)cc1 20 to 50%

Again, but for CSc1ccc(-c2cnc3cccnn23)cc1 10 to 20%

Again, but for Clc1cccc(-c2nnc3ccc(-c4ncccn4)cn23)c1 10 to 20%

Again, but for Nc1cccc(-c2cn3c(NC(=O)Cc4ccc(F)c(F)c4)cnc3cn2)c1 10 to 20%

Again, but for CN(C)C(=O)c1cccc(-c2ccc3nnc(-c4ccc5nccnc5c4)n3c2)c1 50 to 100%

Again, but for Clc1ccc(-c2cnc3cnc(-c4ccsc4)cn23)cc1 50 to 100%

Again, but for Cn1ccc2cc(-c3cnc4cnc(-c5cccc(C(N)=O)c5)cn34)ccc21 20 to 50%

Again, but for COc1cc(-c2cnc3ccc(-c4cccc(OC(F)(F)F)c4)nn23)ccc1O 10 to 20%

Again, but for CN(C)c1ccc(-c2cnc3cnc(-c4ccc(O)cc4)cn23)cc1 50 to 100%

Again, but for Fc1cccc(-c2cnc3cnc(-c4ccc(Cl)cc4)cn23)c1 20 to 50%

Again, but for c1csc(-c2ccc3nnc(-c4ccoc4)n3c2)c1 50 to 100%

Again, but for CN(C)CCCOc1ccc(-c2nnc3ccc(C#Cc4ccc(C(=O)N(C)C)cc4)cn23)cc1 20 to 50%

Again, but for Cc1cccc(-c2cnc3cccnn23)c1 [compound 84, 3-(m-tolyl)imidazo[1,2-b]pyridazine] 10 to 20%

Again, but for COc1ccc(-c2ccc3nnc(-c4ccoc4)n3c2)cc1 50 to 100%

Again, but for CC(=O)Nc1cccc(-c2cnc3ccc(NCc4ccc(F)cc4)nn23)c1 10 to 20%

Again, but for CCCC/C=C/c1cn2c(NC(=O)Cc3cccc(OC)c3)cnc2cn1 10 to 20%

Again, but for COc1ccc(-c2cn3c(-c4ccc(OC)nc4)cnc3cn2)cn1 20 to 50%
